This collection of values is drawn from patent US20260274856A1.

- System tested: cellular cereblon (CRBN) (Homo sapiens, UniProt Q96SW2)
- Assay remarks: NanoBRET Target Engagement Assay, competition with pomalidomide tracer in 293T.116 cells
- Recorded conditions: 24 hours incubation, 293T.116 cells; IP
Test readout: NanoBRET TE 293T.116 CRBN 24 hours IP nM

1. Cc1cc(OC2CCC(=O)NC2=O)cc(OS(=O)(=O)F)c1 (stereo not drawn) :: *** (<= 1 μM is ***)
2. Cn1nc(N2CCC(=O)NC2=O)c2cccc(S(=O)(=O)F)c21 :: *** (<= 1 μM is ***)

---

- System tested: cellular cereblon (CRBN) (Homo sapiens, UniProt Q96SW2)
- Assay remarks: NanoBRET Target Engagement Assay, competition with pomalidomide tracer in 293T.116 cells
- Recorded conditions: read-out: NanoBRET TE 293T.116 CRBN 24 hours Emax
Test readout: Emax

1. O=C1NC(=O)C2(c3ccc(S(=O)(=O)F)cc3)CC1C2 :: > 80%
2. O=C1CCC(c2ccc(S(=O)(=O)F)cc2)C(=O)N1 (centres unmarked) :: < 50%

Prompt: Report Emax for O=C1CCC(Oc2ccc(S(=O)(=O)F)cn2)C(=O)N1 (centres unmarked) please.
Completion: 50 to 80%

Prompt: Report Emax for COc1ccc(OC2CCC(=O)NC2=O)cc1OS(=O)(=O)F (centres unmarked) please.
Completion: 50 to 80%

Prompt: Report Emax for `O=C1CCN(c2ccc(S(=O)(=O)F)cc2)C(=O)N1` please.
Completion: 50 to 80%

Prompt: Report Emax for `Cn1nc(N2CCC(=O)NC2=O)c2cccc(S(=O)(=O)F)c21` please.
Completion: < 50%

Prompt: Report Emax for O=C1CCC(Oc2ccc(C3CCNCC3)c(S(=O)(=O)F)c2)C(=O)N1 (centres unmarked) please.
Completion: < 50%

Prompt: Report Emax for O=C1CCC(c2ccc(N3CCNCC3)c(OS(=O)(=O)F)c2)C(=O)N1 (centres unmarked) please.
Completion: < 50%

Prompt: Report Emax for COc1ccc(OC2CCC(=O)NC2=O)cc1S(=O)(=O)F (centres unmarked) please.
Completion: < 50%
